Entries and their pIC50 values follow.
target: Kras and SOS1 (biotin-tagged human Kras loaded with GDP, His-tagged human SOS1) (Homo sapiens, UniProt P01116, G12D); construct: made in house; host or cells: E. coli (stated for Kras only); assay: Protein-protein interaction inhibition between Kras and SOS1 (KrasGl2D-SOS PPI) using AlphaScreen; type: binding; details: AlphaScreen; biotin-tagged human Kras loaded with GDP, His-tagged human SOS1; read-out: KRAS G12D-SOS PPI IC50
Sequence (P01116 1-188 isoform P01116-2 G12D): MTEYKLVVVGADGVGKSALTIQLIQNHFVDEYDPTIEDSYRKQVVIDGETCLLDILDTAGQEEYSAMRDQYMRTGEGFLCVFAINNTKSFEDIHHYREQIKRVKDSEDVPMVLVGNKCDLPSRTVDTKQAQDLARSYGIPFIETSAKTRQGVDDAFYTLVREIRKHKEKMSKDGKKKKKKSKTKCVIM
Positions of bridges follow the written chain, without caps; N, C: chain ends. Non-standard residues stand in square brackets, D forms with d. Residues, ends and D or L forms follow the SMILES beside them. *: point of attachment. hPhe(3-Cl-4-CF3) = N[C@@H](CCc1ccc(C(F)(F)F)c(Cl)c1)C(=O)O; NMePhe(4-Me) = CN[C@@H](Cc1ccc(C)cc1)C(=O)O; NMeGly(cPent) = CN[C@H](C(=O)O)C1CCCC1; NMeCha = CN[C@@H](CC1CCCCC1)C(=O)O; NMeD = CN[C@@H](CC(=O)O)C(=O)O; NMeL = CN[C@@H](CC(C)C)C(=O)O; dNMeAbu = CC[C@@H](NC)C(=O)O; NMeV = CN[C@H](C(=O)O)C(C)C; d(β3hA) = C[C@@H](N)CC(=O)O; NMeA = CN[C@@H](C)C(=O)O; Piperidide = C1CCN(*)CC1; Ac5c = NC1(C(=O)O)CCCC1; Aze = O=C(O)[C@@H]1CCN1; Ac4c = NC1(C(=O)O)CCC1; Sar = CNCC(=O)O
// returns pIC50 (minus log10 of molar concentration), number only

>  <compound>
CC[C@H](C)[C@@H]1NC(=O)[C@H](CC(C)C)N(C)C(=O)C[C@@H](C)NC(=O)[C@H](C2CCCC2)N(C)C(=O)[C@H](C(C)C)NC(=O)[C@@H]2CCCN2C(=O)[C@H](CCc2ccc(C(F)(F)F)c(Cl)c2)NC(=O)CN(C)C(=O)[C@H](Cc2ccc(C)cc2)N(C)C(=O)[C@@H]2CCN2C(=O)[C@H](C)N(C)C1=O [Compound 933] (cyclo([Aze][NMePhe(4-Me)][Sar][hPhe(3-Cl-4-CF3)]PV[NMeGly(cPent)][d(β3hA)][NMeL]I[NMeA]))

>  <pIC50>
7.08

$$$$

Lab note: CC[C@H](C)[C@@H]1NC(=O)[C@H](CC(C)C)N(C)C(=O)C[C@@H](C)NC(=O)[C@H](C2CCCC2)N(C)C(=O)C2(CCC2)NC(=O)[C@@H]2CCCN2C(=O)[C@H](CCc2ccc(C(F)(F)F)c(Cl)c2)NC(=O)CN(C)C(=O)[C@H](CC2CCCCC2)N(C)C(=O)CN(C)C(=O)CN(C)C1=O [Compound 1544] (cyclo([Ac4c][NMeGly(cPent)][d(β3hA)][NMeL]I[Sar][Sar][NMeCha][Sar][hPhe(3-Cl-4-CF3)]P)) gave pIC50 of 8.25

Lab note: CC[C@@H]1C(=O)NC2(CCCC2)C(=O)N(C)[C@@H](C(C)C)C(=O)N(C)[C@H](C(=O)N2CCCCC2)CC(=O)N(C)[C@@H](CC(C)C)C(=O)N[C@@H]([C@@H](C)CC)C(=O)N(C)[C@@H](C)C(=O)N2CC[C@H]2C(=O)N(C)[C@@H](CC2CCCCC2)C(=O)N(C)CC(=O)N[C@@H](CCc2ccc(C(F)(F)F)c(Cl)c2)C(=O)N1C [Compound 1438] ([NMeL]I[NMeA][Aze][NMeCha][Sar][hPhe(3-Cl-4-CF3)][dNMeAbu][Ac5c][NMeV][NMeD]-Piperidide; lactam N-11) gave pIC50 of 7.44

---

biological target: Kras and SOS1 (biotin-tagged human Kras loaded with GDP, His-tagged human SOS1) (Homo sapiens, UniProt P01116, G12D); construct: made in house; host or cells: E. coli (stated for Kras only); test: Protein-protein interaction inhibition between Kras and SOS1 (KrasGl2D-SOS PPI) using AlphaScreen; format: binding; settings: AlphaScreen; biotin-tagged human Kras loaded with GDP, His-tagged human SOS1; read-out: KRAS G12D-SOS PPI IC50
Positions of bridges follow the written chain, without caps; N, C: chain ends. Non-standard residues stand in square brackets, D forms with d. Residues, ends and D or L forms follow the SMILES beside them. *: point of attachment. hPhe(3-Cl-4-CF3) = N[C@@H](CCc1ccc(C(F)(F)F)c(Cl)c1)C(=O)O; NMePhe(3-Cl) = CN[C@@H](Cc1cccc(Cl)c1)C(=O)O; NMePhe(3-Me) = CN[C@@H](Cc1cccc(C)c1)C(=O)O; NMePhe(4-Me) = CN[C@@H](Cc1ccc(C)cc1)C(=O)O; Phe(3-I) = N[C@@H](Cc1cccc(I)c1)C(=O)O; NMeCha = CN[C@@H](CC1CCCCC1)C(=O)O; NMeChg = CN[C@H](C(=O)O)C1CCCCC1; NMeI = CC[C@H](C)[C@H](NC)C(=O)O; NMeD = CN[C@@H](CC(=O)O)C(=O)O; NMeL = CN[C@@H](CC(C)C)C(=O)O; NMeV = CN[C@H](C(=O)O)C(C)C; d(β3hA) = C[C@@H](N)CC(=O)O; NMeA = CN[C@@H](C)C(=O)O; NMeAib = CNC(C)(C)C(=O)O; Piperidide = C1CCN(*)CC1; Pyrrolidide = C1CCN(*)C1; dNMeA = CN[C@H](C)C(=O)O; Ac5c = NC1(C(=O)O)CCCC1; Aze = O=C(O)[C@@H]1CCN1; Sar = CNCC(=O)O
Entries and their pIC50 values follow.
// returns pIC50 (minus log10 of molar concentration), number only

Study these solved cases before continuing.
>  <compound>
CC[C@H](C)[C@@H]1NC(=O)[C@H](CC(C)C)N(C)C(=O)C[C@@H](C(=O)N2CCCCC2)N(C)C(=O)[C@H](CC(C)C)NC(=O)C(C)(C)N(C)C(=O)[C@H](Cc2ccc(OC)cc2)NC(=O)[C@H](Cc2cccc(I)c2)NC(=O)CN(C)C(=O)[C@H](Cc2ccc(C)cc2)N(C)C(=O)[C@@H]2CCN2C(=O)CN(C)C1=O [Compound 188] ([NMeL]I[Sar][Aze][NMePhe(4-Me)][Sar][Phe(3-I)]Y(Me)[NMeAib]L[NMeD]-Piperidide; lactam N-11)

>  <pIC50>
8.21

$$$$
>  <compound>
CC[C@H](C)[C@@H]1NC(=O)[C@H](CC(C)C)N(C)C(=O)C[C@@H](C(=O)N2CCCC2)N(C)C(=O)[C@H](C2CCCCC2)N(C)C(=O)C2(CCCC2)NC(=O)[C@@H]2CCCN2C(=O)[C@H](CCc2ccc(C(F)(F)F)c(Cl)c2)NC(=O)CN(C)C(=O)[C@H](CC2CCCCC2)N(C)C(=O)[C@@H]2CCN2C(=O)[C@H](C)N(C)C1=O [Compound 1726] ([NMeL]I[NMeA][Aze][NMeCha][Sar][hPhe(3-Cl-4-CF3)]P[Ac5c][NMeChg][NMeD]-Pyrrolidide; lactam N-11)

>  <pIC50>
9.17

$$$$

Lab note: CC[C@H](C)[C@@H]1NC(=O)[C@H](CC(C)C)N(C)C(=O)C[C@@H](C(=O)N(C)C)N(C)C(=O)[C@H]([C@@H](C)CC)N(C)C(=O)C2(CCCC2)NC(=O)[C@H](Cc2cccc(Cl)c2)N(C)C(=O)[C@H](CCc2ccc(C(F)(F)F)c(Cl)c2)NC(=O)CN(C)C(=O)[C@H](Cc2ccc(C)cc2)N(C)C(=O)[C@@H]2CCN2C(=O)[C@H](C)N(C)C1=O [Compound 783] ([NMeL]I[NMeA][Aze][NMePhe(4-Me)][Sar][hPhe(3-Cl-4-CF3)][NMePhe(3-Cl)][Ac5c][NMeI][NMeD]-NMe2; lactam N-11) gave pIC50 of 8.01

Lab note: CC[C@H](C)[C@@H]1NC(=O)[C@H](C)N(C)C(=O)C[C@@H](C(=O)N2CCCCC2)N(C)C(=O)[C@H](C(C)C)N(C)C(=O)C2(CCCC2)NC(=O)[C@@H]2CCCN2C(=O)[C@H](CCc2ccc(C(F)(F)F)c(Cl)c2)NC(=O)[C@@H](C)N(C)C(=O)[C@H](CC2CCCCC2)N(C)C(=O)[C@@H]2CCN2C(=O)[C@H](C)N(C)C1=O [Compound 1103] ([NMeA]I[NMeA][Aze][NMeCha][dNMeA][hPhe(3-Cl-4-CF3)]P[Ac5c][NMeV][NMeD]-Piperidide; lactam N-11) gave pIC50 of 7.80

Lab note: CC[C@H](C)[C@@H]1NC(=O)[C@H](CC(C)C)N(C)C(=O)C[C@@H](C)NC(=O)[C@H](C(C)C)N(C)C(=O)C2(CCCC2)NC(=O)[C@@H]2CCCN2C(=O)[C@H](CCc2ccc(C(F)(F)F)c(Cl)c2)NC(=O)CN(C)C(=O)[C@H](Cc2cccc(C)c2)N(C)C(=O)CN(C)C(=O)CN(C)C1=O [Compound 1547] (cyclo([Ac5c][NMeV][d(β3hA)][NMeL]I[Sar][Sar][NMePhe(3-Me)][Sar][hPhe(3-Cl-4-CF3)]P)) gave pIC50 of 7.66

Data provenance is patent US12371454B2.
